- assay system: human β3 adrenergic receptor (Homo sapiens, UniProt P13945)
- Construct: expressed in transfected cells; host or cells: Chinese hamster ovary (CHO) cells, stably transfected
- Sequence (P13945 whole entry): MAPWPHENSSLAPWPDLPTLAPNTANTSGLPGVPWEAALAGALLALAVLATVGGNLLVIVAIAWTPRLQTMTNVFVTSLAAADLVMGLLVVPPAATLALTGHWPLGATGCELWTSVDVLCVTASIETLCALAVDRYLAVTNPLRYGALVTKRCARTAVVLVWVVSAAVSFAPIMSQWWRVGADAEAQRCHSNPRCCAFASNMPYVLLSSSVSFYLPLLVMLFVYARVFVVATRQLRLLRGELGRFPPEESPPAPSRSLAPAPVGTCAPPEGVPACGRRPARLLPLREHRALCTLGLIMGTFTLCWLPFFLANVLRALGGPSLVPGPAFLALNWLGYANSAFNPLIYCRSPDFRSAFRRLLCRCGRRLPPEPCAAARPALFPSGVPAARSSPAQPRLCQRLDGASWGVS
- assay text: Functional assay: cAMP production (LANCE TR-FRET) in CHO cells stably transfected with cloned β3 adrenergic receptor
- Assay type: cell-based
- test parameters: Table 5; read-out: Human β3 Functional
pEC50: −log10 of the molar value.
readout kind: pEC50

CC(C(=O)Nc1ccc(C[C@@H]2CC[C@H]([C@H](O)c3ccccc3)N2)cc1)n1nncc1C(N)=O (single isomer, unassigned) [Example 199] | 8.00 to 9.00
O=C(Nc1ccc(C[C@@H]2CC[C@H]([C@H](O)c3ccccc3)N2)cc1)C1CCCn2ccnc21 (single isomer, unassigned) [Example 155] | 6.00 to 7.00
Cc1n[nH]c2c1CCC2C(=O)Nc1ccc(C[C@@H]2CC[C@H]([C@H](O)c3ccccc3)N2)cc1 (single isomer, unassigned) [Example 138] | 7.00 to 7.96

Exam item: With human β3 adrenergic receptor (Homo sapiens, UniProt P13945) as the test system, provide measured pEC50 for this compound: Cc1ccc(=O)n(C(C)C(=O)Nc2ccc(C[C@@H]3CC[C@H]([C@H](O)c4ccccc4)N3)cc2)n1 (single isomer, unassigned) [Example 165]
Marked response: 8.00 to 9.00

Exam item: With human β3 adrenergic receptor (Homo sapiens, UniProt P13945) as the test system, provide measured pEC50 for this compound: CC(Oc1cccnn1)C(=O)Nc1ccc(C[C@@H]2CC[C@H]([C@H](O)c3ccccc3)N2)cc1 (single isomer, unassigned) [Example 214]
Marked response: 6.00 to 7.00

Exam item: With human β3 adrenergic receptor (Homo sapiens, UniProt P13945) as the test system, provide measured pEC50 for this compound: CC(C(=O)Nc1ccc(C[C@@H]2CC[C@H]([C@H](O)c3ccccc3)N2)cc1)n1ccnn1 (single isomer, unassigned) [Example 183]
Marked response: 8.00 to 9.00

Exam item: With human β3 adrenergic receptor (Homo sapiens, UniProt P13945) as the test system, provide measured pEC50 for this compound: CC(C(=O)Nc1ccc(C[C@@H]2CC[C@H]([C@H](O)c3ccccc3)N2)cc1)c1ccccn1 (single isomer, unassigned) [Example 204]
Marked response: 8.00 to 9.00

Exam item: With human β3 adrenergic receptor (Homo sapiens, UniProt P13945) as the test system, provide measured pEC50 for this compound: COCCC(C(=O)Nc1ccc(C[C@@H]2CC[C@H]([C@H](O)c3ccccc3)N2)cc1)n1cccn1 (single isomer, unassigned) [Example 224]
Marked response: 7.00 to 7.96
